// provenance: ChEMBL document CHEMBL1201862

- Tested on: NCI-H522
- test.details: NCI tumour cell line growth inhibition, 48 h
Where a name gives a salt, the structure may show the parent alone. Active and inactive are the calls of the source. Cut-off read from the data, not from the text of the source: active = GI50 up to about 1.1 µM and inactive = higher.
Would you mind answering with one of these outcomes? class 1 = active, class 0 = inactive

Some solved cases for reference:
compound="C=C1C[C@@H]2CC[C@@]34C[C@H]5O[C@H]6[C@@H](O3)[C@H]3O[C@H](CC[C@@H]3O[C@H]6[C@H]5O4)CC(=O)C[C@@H]3[C@@H](OC)[C@@H](C[C@H](O)CN)O[C@H]3C[C@H]3O[C@@H](CC[C@@H]1O2)C[C@@H](C)C3=C [ERIBULIN MESYLATE]" category_label="class 1"
compound=CC(C)(C)c1cc(C(C)(C)C)c(SSc2c(C(C)(C)C)cc(C(C)(C)C)c(O)c2O)c(O)c1O category_label="class 0"
compound=Oc1cc(-c2cccc(Cl)c2)nc2ncccc12 category_label="class 1"
compound=COc1ccc2cc(-c3nc(N)nc(N4N=C(C)CC4(C)C)n3)c(=N)oc2c1 category_label="class 0"

Enquiry: For this compound, state the assay outcome: COc1cc(C2c3cc4c(cc3[C@@H](Nc3cccc([N+](=O)[O-])c3)C3COC(=O)[C@H]23)OCO4)cc(OC)c1O (stereo partly drawn)
Return: class 0

Enquiry: Hi, do you know how COc1cc(S(=O)(=O)Nc2ccc(-c3csc(N4C(=O)C(C)SC4c4cccc(Oc5ccccc5)c4)n3)cc2)ccc1Cl (stereo not drawn) came out in this test?
Return: class 0

Enquiry: Tell me the recorded outcome of this test for COC(=O)c1c2c(cc3c1CC1(C3)Cc3cc4c(c(C(C)=O)c3C1)CCC4)C=CC2 (stereo not drawn) .
Return: class 0

* * *

- System: UACC-62
- test.details: NCI tumour cell line growth inhibition, 48 h
The source made the active and inactive calls. No stated cut-off is given here; in the data, active = GI50 up to about 1.1 µM and inactive = higher.
Respond with a class label; see TRUE for active, FALSE for inactive

Use these answered entries as a reference point.
compound=CN(C)CCCN1c2ccccc2Sc2ccc3ccccc3c21 category_label=FALSE
compound=O=C(COc1ccccc1)NS(=O)(=O)c1ccccc1 category_label=FALSE
compound="O=C1CS(=O)(=O)C(c2cccc(Oc3ccccc3)c2)N1c1cc(Cl)ccc1Cl (stereo not given)" category_label=FALSE
compound=COC(=O)[C@H]1[C@H](C(=O)OC)[C@@H](C)c2c(ccc3c2[nH]c2ccccc23)[C@@H]1C category_label=FALSE
compound=CC1=Nn2c(nnc2-c2ccccc2Cl)NC(C)(C)C1 category_label=FALSE

Enquiry: What classification did `CC#CC(=O)Nc1ccccc1CC(c1c[nH]c2ccccc12)c1c[nH]c2ccccc12` end up with in this test?
Return: FALSE

Enquiry: In this assay, the call recorded for `CCOC(=O)c1cc(NC(=O)N(CCC#N)CCN(C(=O)N[C@@H](Cc2ccccc2)C(=O)N[C@@H](CC(C)C)C(=O)NC)c2ccccc2)ccc1OC` was what?
Return: FALSE

Enquiry: # lookup: test call for COC(=O)CCC1CCc2c(OC)ccc(OC)c2C1=O (stereo not given)
Return: FALSE

Enquiry: Could you check what this test reported for `O=[S@@]1Nc2ccc(Br)cc2S1` ?
Return: TRUE

Enquiry: Answer briefly: the call reported for `CC(C)(CO)NC1=C(Cl)C(=O)c2c(O)ccc(O)c2C1=O` in this assay.
Return: FALSE

* * *

We begin with a simple list: items and their reported GI50.
- System: TK-10
- test.details: NCI tumour cell line growth inhibition, 48 h
Calls of active or inactive are those of the source. Rule as the data show it: active = GI50 up to about 1.1 µM and inactive = higher.

molecule=NCCCCNCCCN1CC1 result="2.04 µM (inactive)"
molecule="CC(=O)NC(CS)C(=O)O (configuration not stated)" result="10000 µM (inactive)"
molecule="O=C1CS(=O)(=O)C(c2cccc(Oc3ccccc3)c2)N1c1cc(Cl)ccc1Cl (configuration not stated)" result="30.1 µM (inactive)"
molecule="O=CC1=CCC2c3[nH]c4ccccc4c3CCN2C1 (configuration not stated)" result="259 µM (inactive)"

Continue with the next molecule.
Enquiry: Please give measured GI50 of the following entry: `CCc1nc(N)nc(N)c1-c1ccc(N2CCNCC2)cc1`
Return: > 100 µM (inactive)

* * *

- Test system: M14
- test.details: NCI tumour cell line growth inhibition, 48 h
Activity calls are given as the source filed them. No stated cut-off is given here; in the data, active = GI50 up to about 1.1 µM and inactive = higher.
Log the outcome using a class from active, inactive

Please review the entries below; each comes with its answer.
compound="OC(c1ccsc1)c1cc2ccccc2s1 (stereo unspecified)" category_label=inactive
compound=CC(C)(C)COS(=O)OCC(C)(C)C category_label=inactive
compound="CCOC(=O)C(O)Cc1cnc2ccccc2n1 (stereo unspecified)" category_label=inactive
compound="CCOC(=O)C1Oc2ccc([N+](=O)[O-])cc2C1(C)O (stereo unspecified)" category_label=inactive
compound=C[C@@H](NS(=O)(=O)c1ccc(NC(=O)c2ccccc2)cc1)C(=O)O category_label=inactive

Enquiry: Given `CC(C)(C)OC/C=C(\Br)CO` , state the outcome it received in this test.
Return: inactive

Enquiry: Assay outcome for `COc1ccc(-c2oc3cc(OC)c(OC)c(OC)c3c(=O)c2OC)cc1OC` : what was it?
Return: inactive

Enquiry: Record request — test call for C=C(Cl)C(=C)CCC(Cl)C(C)(C)Cl (stereo unspecified)
Return: inactive

Enquiry: Short answer needed: outcome of this test for `CC(C)(CN1CCCCC1)C(/C=C/c1ccc(Cl)cc1)=N\NC(=O)N/N=C(/C=C/c1ccc(Cl)cc1)C(C)(C)CN1CCCCC1` ?
Return: inactive

Enquiry: Answer briefly: the call reported for [N-]=[N+]=NC1C2CC3CC(C2)CC1C3 (stereo unspecified) in this assay.
Return: inactive

Enquiry: Recorded test call requested for `O=C1c2ccccc2C(=O)N1CCCCNOCCCN1C(=O)c2ccccc2C1=O`
Return: inactive

Enquiry: Recorded test outcome, item O=C(O)c1cc(CC2Cc3cc4c(cc3C2=O)CCC4)cc2c1CCC2 (stereo unspecified)
Return: inactive

Enquiry: Please indicate how the test categorized `COc1ccc2cc(-c3nc(N)nc(N4N=C(C)CC4(C)C)n3)c(=N)oc2c1` .
Return: inactive

Enquiry: I would be grateful if you could indicate the recorded call for `O=C(Nc1ccc(S(=O)(=O)N[C@@H](C(=O)O)c2ccccc2)cc1)c1ccc(F)cc1` .
Return: inactive

* * *

- Tested on: MCF7
- test.details: NCI tumour cell line growth inhibition, 48 h
Active and inactive are the calls of the source. Cut-off read from the data, not from the text of the source: active = GI50 up to about 1.1 µM and inactive = higher.
Form entry, call: pick from 1.0 (active), 0.0 (inactive)

Example cases with answers are listed next.
molecule="CC(C)CC(N)C(=O)NC(C(=O)NC(CCCNC(=N)N)C(=O)NC(CS)C(=O)NC1CSCC(C(=O)NC(Cc2ccccc2)C(=O)NC(C(=O)NC(CCCNC(=N)N)C(=O)O)C(C)C)NC(=O)C2CCCN2C(=O)C(CCCCN)NC(=O)C2CCCN2C(=O)C2CCCN2C(=O)C(Cc2ccc(O)cc2)NC(=O)C(CO)NC(=O)C(CCCCN)NC(=O)C(C(C)O)NC(=O)C(Cc2c[nH]c3ccccc23)NC1=O)C(C)C (centres undefined)" category_label=0.0
molecule=NCCCCNC1(c2cc3ccccc3s2)CCCCC1 category_label=0.0
molecule="CC1CC(C)CC(C)C(O)/C(C#N)=C/C=C/CC(C2CCCC2C(=O)O)OC(=O)CC(O)C(C)C1 (centres undefined)" category_label=1.0

Here's the next entry for you.
Enquiry: Could you kindly confirm the outcome this assay logged for `O=C(c1ccccc1)c1ccc2[nH]c(-c3c(Cl)c(Cl)c(Cl)c(Cl)c3C(=O)N/N=C/c3ccc(Cl)cc3)nc2c1` ?
Return: 0.0

* * *

- System: SK-OV-3
- test.details: NCI tumour cell line growth inhibition, 48 h
The source made the active and inactive calls. No stated cut-off is given here; in the data, active = GI50 up to about 1.1 µM and inactive = higher.
Classes to choose from: t (active), f (inactive)

A selection of reference data follows.
compound="CC(=O)C1CCN(c2ccccc2)C1 (stereo not given)" category_label=f
compound=O=S(=O)(O)C1=C2Sc3ccccc3N=C2c2ccccc2C1 category_label=f

Enquiry: Check the results log: what was the call for `Cc1cccc(C)c1NC(=O)C(=O)Cc1nc2ccccc2s1` ?
Return: f

Enquiry: What did the test return for `CC(=O)Oc1cc2c(cc1OC(C)=O)[C@H]1CC[C@]3(C)[C@@H](OC(C)=O)CC[C@H]3[C@@H]1CC2` ?
Return: f

Enquiry: Assay result, entry COc1cc2c(c(OC)c1OC)-c1ccc(SC)c(=O)cc1C(CO)C2 (stereo not given) — outcome?
Return: t

* * *

- Test system: HOP-18
- test.details: NCI tumour cell line growth inhibition, 48 h
Calls of active or inactive are those of the source. Cut-off read from the data, not from the text of the source: active = GI50 up to about 1.1 µM and inactive = higher.
Outcome field: choose from true (active), false (inactive)

compound=Cc1cc2c(=O)cc(-c3ccc(C(F)(F)F)cc3)oc2c(C(=O)O)c1C category_label=false
compound=CC(C)(C)c1nc2c(o1)C(=O)c1ccccc1C2=O category_label=false

Enquiry: // outcome(item) with item = `CCOCc1cc(=O)c2c(O)cc3c(c2o1)CCC(C)(C)O3`
Return: false

Enquiry: I would be grateful if you could indicate the recorded call for `O=C(O)C[C@@H](Cl)[C@H](NC(=O)OCc1ccccc1)C(=O)O` .
Return: false

Enquiry: Query: recorded result category for N#CC12Cc3ccc4c(c3-c3cccc(c31)CCN2C(=O)c1ccccc1)OCO4 (stereo unspecified) in this test
Return: false
